biological target: Leucine aminopeptidase (Plasmodium falciparum 3D7); test: P. falciparum M17LAP inhibitors, primary screen, biochemical, fluorogenic H-Leu-NHMec substrate, 1536-well (AID 1619); assay type: functional
Sequence (Q8IL11 whole entry): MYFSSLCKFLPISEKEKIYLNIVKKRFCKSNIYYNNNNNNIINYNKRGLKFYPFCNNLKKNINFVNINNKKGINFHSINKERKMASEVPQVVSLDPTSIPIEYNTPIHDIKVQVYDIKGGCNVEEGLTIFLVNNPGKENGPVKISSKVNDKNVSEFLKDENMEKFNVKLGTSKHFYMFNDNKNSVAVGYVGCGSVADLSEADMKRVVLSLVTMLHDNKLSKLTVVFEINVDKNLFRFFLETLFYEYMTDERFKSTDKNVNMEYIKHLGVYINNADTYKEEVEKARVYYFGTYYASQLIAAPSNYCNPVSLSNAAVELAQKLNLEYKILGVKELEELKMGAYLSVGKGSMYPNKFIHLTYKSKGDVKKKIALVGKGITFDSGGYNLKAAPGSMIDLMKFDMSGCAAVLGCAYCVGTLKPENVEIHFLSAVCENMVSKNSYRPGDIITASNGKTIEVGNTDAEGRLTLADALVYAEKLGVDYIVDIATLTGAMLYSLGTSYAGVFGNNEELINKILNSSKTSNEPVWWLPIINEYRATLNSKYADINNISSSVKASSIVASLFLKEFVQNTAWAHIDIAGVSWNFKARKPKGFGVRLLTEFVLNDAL
Active and inactive are the calls of the source.

compound: O=C(O)c1cnn2cc(-c3n[nH]cc3[N+](=O)[O-])cnc12
IC50: 13.3 µM (active)
--
compound: COc1ccc(-c2cc(=O)[nH][nH]2)cc1
IC50: 2.97 µM (active)
--
compound: O=C(/C=C/c1ccco1)Nc1cc(Cl)ccc1C(=O)O
IC50: 74.4 µM (active)
--
compound: CCC1(C)Cc2sc3c(=O)[nH]c(=S)[nH]c3c2CO1 (stereo unspecified)
IC50: 29.3 µM (active)
--
compound: Cc1cc(/C=N/Nc2ccc([N+](=O)[O-])cn2)c(C)n1-c1ccc(C(=O)O)cc1
IC50: 12.7 µM (active)
--
compound: Cc1noc(NS(=O)(=O)c2ccc(NC(=O)Nc3ccc(Cl)c(Cl)c3)cc2)c1C
IC50: 9.03 µM (active)
--
compound: CCN(CC)c1ccc(NC(=O)Cn2nnc(-c3cccc(OC)c3OC)n2)c(C)c1
IC50: < 1 µM (active)
--
compound: Nc1[nH]nc2nc(N3CCCC3)nc(-c3ccccc3)c12
IC50: 33.7 µM (active)
--
compound: O=C(CN1C(=O)C2C3C=CC(C3)C2C1=O)NCC1COc2ccccc2O1 (stereo unspecified)
IC50: 2.19 µM (active)
--
compound: COc1cc(/C=N/Nc2ccc(Cl)c(C(=O)O)c2)ccc1OC(=O)c1cccs1
IC50: 55.5 µM (active)
--
compound: CCOc1ccc(Nc2nnc(S)s2)cc1
IC50: < 1 µM (active)
--
compound: CCCOc1ccc(N2C(=O)CC(SCCN)C2=O)cc1 (stereo unspecified)
IC50: 12 µM (active)
--
compound: CC1=NNC(=O)C1CCC(=O)N/N=C\c1cccc(Cl)c1 (stereo unspecified)
IC50: 20.9 µM (active)
--
compound: Cc1ccc(NC(=O)CSc2ncccc2C(=O)Oc2cccc([N+](=O)[O-])c2)cc1Cl
IC50: 32 µM (active)
--
compound: COc1cccc(N/N=C(\C#N)S(=O)(=O)C(C)(C)C)c1
IC50: 26.7 µM (active)
--
compound: CN1C2CCC1/C(=C/c1cccn1C)C(=O)/C2=C\c1cccn1C
IC50: 51.9 µM (active)

---

target: Melanin-concentrating hormone receptor 1 (Homo sapiens); test: Late-stage fluorescence-based counterscreen for antagonists of the G-protein coupled receptor 7 (GPR7): cell-based dose response assay to identify antagonists of the melanin-concentrating hormone receptor 1 (MCHR1). [Related pubchem assays (depositor defined):AID1861, AID1880, AID1952, AID2148, AID2251, AID2257, AID485339]; format: functional;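 further: stimulated with 30 nM MCH peptide agonist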
Sequence (Q99705 whole entry): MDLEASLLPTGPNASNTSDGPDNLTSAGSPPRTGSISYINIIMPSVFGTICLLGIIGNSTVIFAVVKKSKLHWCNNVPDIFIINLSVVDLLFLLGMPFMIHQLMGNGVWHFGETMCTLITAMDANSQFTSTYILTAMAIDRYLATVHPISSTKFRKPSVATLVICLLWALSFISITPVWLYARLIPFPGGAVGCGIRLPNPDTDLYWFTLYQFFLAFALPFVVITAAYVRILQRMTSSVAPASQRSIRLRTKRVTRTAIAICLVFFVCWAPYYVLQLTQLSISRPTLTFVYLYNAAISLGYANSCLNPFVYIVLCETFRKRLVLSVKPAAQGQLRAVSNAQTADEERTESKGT
Active and inactive are the calls of the source.
Outcome codes: active, inactive

compound: COc1ccc(Oc2c(Br)cnn(-c3ccccc3)c2=O)cc1
class: inactive
--
compound: O=C(C1CCCCN1Cc1ccc2ccccc2c1)N1CCN(c2ccc([N+](=O)[O-])cc2)CC1 (centres undefined)
class: active
--
compound: CC(C)c1ccc(-n2ncc(Cl)c(Oc3ccc(OC(F)(F)F)cc3)c2=O)cc1
class: inactive
--
compound: COc1ccc(Oc2c(-c3ccco3)cnn(-c3ccc(C)cc3)c2=O)cc1
class: inactive
